Source: patent US20230257458A1

Target: T1, IL-11 protein (UniProt P20809 22-199, limits assumed)
T1 construct: also called IL-11 antigen
T1 sequence (looked up): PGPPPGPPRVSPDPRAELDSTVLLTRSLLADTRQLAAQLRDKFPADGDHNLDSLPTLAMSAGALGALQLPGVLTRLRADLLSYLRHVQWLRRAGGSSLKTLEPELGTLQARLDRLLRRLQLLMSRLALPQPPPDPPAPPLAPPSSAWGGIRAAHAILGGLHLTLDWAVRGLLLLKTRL
Assay: SPR (Biacore), antibody captured, 400 nM IL-11 as analyte
PROPERTY: kon
Answers without a unit are incomplete; give the number and then its unit.

Solved entries:
>>> result("VH2 + VL2-scFv (scFv, V domains shown, Humanized 5-20E11-5F2; CHO supernatant; Called scFv, but heavy and light vectors were co-transfected) VH: QVQLVQSGAEVKKPGASVKVSCKASDYTFTNYWLGWVRQAPGQGLEWIGHIYPGGGYTNYNEKFKGRVTMTADTSTSTVYMELSSLRSEDTAVYFCARVRSGNDALDFWGQGTLVTVSS VL: EIVLTQSPATLSLSPGERATLSCRASESVDEYGISFMNWYQQKPGQAPRLLIYSASNQGSGIPARFSGSGSGTDFTLTISSLEPEDFAVYFCQQSKEVPWTFGGGTKLEIK")
"45700 M⁻¹ s⁻¹"
>>> result("VH3 + VL3-scFv (scFv, V domains shown, Humanized 5-20E11-5F2; CHO supernatant; Called scFv, but heavy and light vectors were co-transfected) VH: QVQLVQSGAEVKKPGASVKVSCKASDYTFTNYWLGWVRQAPGQGLEWIGHIYPGGGYTNYNEKFKGRATLTADTSTSTVYMELSSLRSEDTAVYFCARVRSGNDALDFWGQGTLVTVSS VL: EIVLTQSPATLSLSPGERATLSCRASESVDEYGISFMNWFQQKPGQAPRLLIYSASNQGSGIPARFSGSGSGTDFTLTISSLEPEDFAVYFCQQSKEVPWTFGGGTKLEIK")
"47600 M⁻¹ s⁻¹"
>>> result("VH4 + VL1-scFv (scFv, V domains shown, Humanized 5-20E11-5F2; CHO supernatant; Called scFv, but heavy and light vectors were co-transfected) VH: QVQLVQSGAEVKKPGASVKVSCKASDYTFTNYWLGWVRQAPGHGLEWIGHIYPGGGYTNYNEKFKGRATLTADTSTSTVYMELSSLRSEDTAVYFCARVRSGNDALDFWGQGTLVTVSS VL: EIVLTQSPATLSLSPGERATLSCRASESVDEYGISFMNWYQQKPGQAPRLLIYSASNQGSGIPARFSGSGSGTDFTLTISSLEPEDFAVYYCQQSKEVPWTFGGGTKLEIK")
"48900 M⁻¹ s⁻¹"
>>> result("VH3 + VL4-scFv (scFv, V domains shown, Humanized 5-20E11-5F2; CHO supernatant; Called scFv, but heavy and light vectors were co-transfected) VH: QVQLVQSGAEVKKPGASVKVSCKASDYTFTNYWLGWVRQAPGQGLEWIGHIYPGGGYTNYNEKFKGRATLTADTSTSTVYMELSSLRSEDTAVYFCARVRSGNDALDFWGQGTLVTVSS VL: EIVLTQSPATLSLSPGERATLSCRASESVDEYGISFMNWFQQKPGQAPRLLIYSASNQGSGIPARFSGSGSGTDFTLTISSLEPEDFAMYFCQQSKEVPWTFGGGTKLEIK")
"41800 M⁻¹ s⁻¹"
>>> result("VH4 + VL3-scFv (scFv, V domains shown, Humanized 5-20E11-5F2; CHO supernatant; Called scFv, but heavy and light vectors were co-transfected) VH: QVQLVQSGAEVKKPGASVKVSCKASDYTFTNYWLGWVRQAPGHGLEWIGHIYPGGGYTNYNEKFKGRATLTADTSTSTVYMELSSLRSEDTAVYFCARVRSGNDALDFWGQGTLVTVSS VL: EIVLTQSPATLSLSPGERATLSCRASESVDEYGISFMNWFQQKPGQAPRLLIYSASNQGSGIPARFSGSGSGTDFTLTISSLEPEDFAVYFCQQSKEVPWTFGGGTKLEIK")
"46100 M⁻¹ s⁻¹"

Note: attention shifts to another entry.
Exam item: I would be grateful if you could share the reported kon for VH3 + VL2-scFv (scFv, V domains shown, Humanized 5-20E11-5F2; CHO supernatant; Called scFv, but heavy and light vectors were co-transfected) VH: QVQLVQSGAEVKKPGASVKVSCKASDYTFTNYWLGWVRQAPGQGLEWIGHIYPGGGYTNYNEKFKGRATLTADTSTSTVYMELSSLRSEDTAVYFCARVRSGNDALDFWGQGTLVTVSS VL: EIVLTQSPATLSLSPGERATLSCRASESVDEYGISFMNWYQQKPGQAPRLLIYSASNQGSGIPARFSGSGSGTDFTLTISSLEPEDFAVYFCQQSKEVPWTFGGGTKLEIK .
Marked response: 46500 M⁻¹ s⁻¹
